# Test system: NCI-H460 lung
# TEST: NCI-60 one-dose screen, 48 h
# MEASUREMENT_CONTEXT: 10 µM unless noted
This is part of a sample that, as a whole, favours compounds with a hit. Of some 83,000 tested, about 20% had one in any assay. The source made the active and inactive calls. How the source made its calls: active means growth percent below 10; inactive means the rest.
Classes used: label 1 for active, label 0 for inactive

CN(c1ccc(F)cc1)S(=O)(=O)c1ccc(-c2cnc(C3CC3)o2)cc1 | label 0
Oc1ccccc1-c1nnc(SCc2ccc(O)c3ncccc23)o1 | label 1
Oc1ccc(CSc2nnc(-c3ccc(Br)cc3)n2-c2ccccc2)c2cccnc12 | label 1
COc1ccc([C@H]2c3[nH]c4ccccc4c3C[C@@H]3C(=O)N(C4CCN(Cc5ccccc5)CC4)CC(=O)N23)c(OC)c1 | label 0
COc1ccc(-c2ccc3c4c(cccc24)C(=O)N(N2C(=O)c4cccc5cccc(c45)C2=O)C3=O)cc1 | label 0
C#CCOc1ccc(C(Nc2ccc(Cl)cc2)c2nnnn2C2CCCCC2)cc1 (stereo not given) | label 0
CCCCCCNC(=O)Oc1ccc(/C(=C(/C)c2ccc(Cl)cc2)c2ccc(OCCN3CCCC3)cc2)cc1 | label 1
O=C(/C=C1\C=CN(CCCCCCF)c2ccccc21)n1ccc2ccccc21 | label 0
C=C1C(=O)O[C@@H]2C[C@@H](C)[C@H](OC)CC(=O)[C@](C)(OC(C)=O)C[C@H](OC(=O)/C(C)=C\C)[C@@H]12 | label 0
O=C(CN1C(=O)S/C(=C\c2ccccc2)C1=O)Nc1ccc(C(=O)/C=C/c2cc3ccccc3nc2Cl)cc1 | label 0
COc1cc(/C=N/n2cnc3oc(-c4ccccc4)cc3c2=N)cc(CN2CCCC2)c1O | label 1
O=C(Nc1cccc(-c2nc(-c3ccc(NC(=O)c4cccs4)cc3Cl)no2)c1)Nc1ccc(NC(=O)C2CC2)c(C(F)(F)F)c1 | label 1
Cc1ccc(Nc2ncnc3c2c(C)nn3-c2ccc([N+](=O)[O-])cc2)cc1 | label 0
CCNCc1c(-c2cccc(OC(F)(F)F)c2)[nH]c2ccc(N3CCCC3)cc2c1=O | label 1
COc1c([C@@H](CC(C)C)OC(C)=O)ccc2c1C(=O)OCc1cc(C)cc(O)c1O2 | label 1
C=CCn1c(SCC(=O)Nc2cccc(C(=O)/C=C/c3ccc(OC)c(OC)c3)c2)nc2ccccc2c1=O | label 0
O=C(Nc1ccc(Cl)cc1)Nc1nc2ccc([N+](=O)[O-])cc2s1 | label 1
COc1cc(C(=O)c2cc(C(C)=O)c3c4ccccc4ccn23)cc(OC)c1OC | label 0
COc1ccc(-c2nnc(SCc3ccc(O)c4ncccc34)n2-c2ccccc2)cc1 | label 1
CC1OC(O[C@@H]2[C@H](O)C(CO)OC(O[C@H]3COC(O[C@H]4CC[C@]5(C)[C@H]6CC[C@]78OC[C@@]9(CC[C@](C)(C=O)C[C@H]97)C(=O)C[C@@]8(C)[C@]6(C)CC[C@H]5C4(C)C)[C@@H](O)[C@@H]3O)[C@H]2OC2OC[C@@H](O)[C@@H](O)[C@@H]2O)[C@@H](O)[C@@H](O)[C@H]1O (stereo not given in full) | label 0
O=C1[C@H]2Cc3c([nH]c4ccccc34)[C@H](c3ccc(Cl)cc3)N2C(=O)CN1C1CCN(Cc2c(Cl)cccc2Cl)CC1 | label 0
NS(=O)(=O)Oc1ccc2nc(Nc3ccc(F)c(F)c3)ccc2c1 | label 0
O=c1c2ccccc2nc(COc2ccccc2)n1/N=C/C=C/c1ccccc1 | label 0
CC(C)(C)OC(=O)N1CCN(S(=O)(=O)/N=C2\NC(=O)NC2=C(Cl)Cl)CC1 | label 0
Cc1occc1-c1nc2s/c(=C\c3cn(-c4ccccc4)nc3-c3ccccc3)c(=O)n2n1 | label 0
O=C(O)c1ccc(-n2cc(CNc3ccc(F)cc3)c(-c3ccc(C(F)(F)F)cc3)n2)cc1 | label 0
O=C(O)c1ccc(-n2cc(CNc3ccc(Cl)cc3)c(-c3ccc(F)cc3)n2)cc1 | label 0
O=C1[C@H]2Cc3c([nH]c4ccccc34)[C@@H](c3c(Cl)cccc3Cl)N2C(=O)CN1C1CCN(Cc2ccccc2)CC1 | label 1
O=S(=O)(NC1CC2CCC1C2)c1ccc2c(c1)C(=NO)c1cc(S(=O)(=O)NC3CC4CCC3C4)ccc1-2 (stereo not given) | label 0
CN1CCN(c2nc(-c3csc(-c4ccncc4)n3)cc3ccccc23)CC1 | label 0
CC(C)C(=O)Nc1ccc(-c2nc(-c3cccc(O)c3)c(-c3ccnc(Br)c3)[nH]2)cc1 | label 0
CCCC(=O)NC(c1cccnc1)c1cc(Cl)c2cccnc2c1O (stereo not given) | label 0
CS(=O)(=O)c1ccc2c(c1)c1c(n2S(=O)(=O)c2ccc(Cl)cc2)CCCC1 | label 1
NS(=O)(=O)c1ccc(Nc2nc(N/N=C/c3ccc(F)cc3)nc(Nc3ccccc3)n2)cc1 | label 0
Nc1nc(-c2cccc([N+](=O)[O-])c2)c(N=Nc2cccc(Cl)c2)s1 | label 0

====

# Tested on: SK-MEL-2 melanoma
# TEST: NCI-60 one-dose screen, 48 h (100 = growth as untreated, 0 = no growth, -100 = all killed)
# MEASUREMENT_CONTEXT: 10 µM unless noted
About 83,000 compounds went through this panel and 20% of them were active in at least one assay; those are over-represented in the sample as a whole.
The reader will find reported growth values listed item by item below.
REPORTED_METRIC: growth (%)

O=C1C[C@@H](c2ccccc2)Oc2c(Cc3ccccc3O)c(O)c(Cc3cc(Cc4cc(Cc5ccccc5O)ccc4O)ccc3O)c(O)c21 | 110
NS(=O)(=O)c1ccc(Nc2nc(N/N=C/c3ccc([N+](=O)[O-])cc3)nc(Nc3ccccc3)n2)cc1 | 18.2
COc1ccc(OC)c([C@H]2c3[nH]c4ccccc4c3C[C@H]3C(=O)N(CCCCCCC(=O)NO)CC(=O)N23)c1 | 86.6
O=C(CSc1nnc(-c2ccc(Cl)cc2)n1-c1ccccc1)Nc1ccc(F)cc1 | 111
CC1OC(O[C@@H]2[C@H](O)C(CO)OC(O[C@H]3COC(O[C@H]4CC[C@]5(C)[C@H]6CC[C@]78OC[C@@]9(CC[C@](C)(C=O)C[C@H]97)C(=O)C[C@@]8(C)[C@]6(C)CC[C@H]5C4(C)C)[C@@H](O)[C@@H]3O)[C@H]2OC2OC[C@@H](O)[C@@H](O)[C@@H]2O)[C@@H](O)[C@@H](O)[C@H]1O (some centres not stated) | 99.4
Cc1cnc2nc(NN)[nH]n12 | 102
COc1ccc(/C=N/Nc2nc(N/N=C/c3ccc(OC)cc3O)nc(N3CCOCC3)n2)c(O)c1 | 82.6

====

# System: U251 CNS
# TEST: NCI-60 one-dose screen, 48 h (100 = growth as untreated, 0 = no growth, -100 = all killed)
# MEASUREMENT_CONTEXT: 10 µM unless noted
Compounds without any hit were thinned out: in the full panel of roughly 83,000, 20% have a hit.
REPORTED_METRIC: growth (%)

COc1ccc(C(=O)n2cc(C=O)c3ccccc32)cc1 | 93.9
CCNC(=O)Oc1ccc(/C(=C(/C)c2ccccc2)c2ccc(OCCN3CCCC3)cc2)cc1 | 58.6
O=C1[C@@H]2Cc3c([nH]c4ccccc34)[C@H](c3c(Cl)cccc3Cl)N2C(=O)CN1C1CCN(Cc2ccccc2)CC1 | 38.9
Cc1nn(-c2ccc(Cl)cc2)c(C)c1N=Nc1ccc2oc(=O)ccc2c1 | 82.8
O=C(COc1ccc(/C=C2\SC(=O)NC2=O)cc1)Nc1ccc(C(=O)/C=C/c2cc3ccccc3nc2Cl)cc1 | 69
O=C(c1ccc(O)cc1)[C@@H]1[C@@H]2CCCN2[C@@]2(C(=O)N(C(=O)c3ccc(F)cc3)c3ccccc32)[C@H]1c1ccc(F)cc1 | 94.3
CCCCCCCCCC[C@@H](C)[C@@H]1CC(=O)N[C@H]([C@@H](C)O)C(=O)N[C@@H](C)C(=O)N[C@H](C)C(=O)N[C@@H](CCC(N)=O)C(=O)N[C@H](Cc2ccc(O)cc2)C(=O)N[C@@H](C(C)CC)C(=O)O1 (some centres not stated) | 51.6

====

# Tested on: SK-MEL-5 melanoma
# TEST: NCI-60 one-dose screen, 48 h (100 = growth as untreated, 0 = no growth, -100 = all killed)
# MEASUREMENT_CONTEXT: 10 µM unless noted
The panel holds about 83,000 compounds, 20% with a hit somewhere; the sample as a whole holds those more often.
The reader will find reported growth values listed item by item below.
REPORTED_METRIC: growth (%)

COCCC[C@H]1O[C@@](O)([C@H](C)[C@@H]2CC(OC)C(O)/C=C(C)/C=C(C)/C=C(\C)C(OC3O[C@@H](C)[C@H](O)C(O)[C@@H]3O)C(C)/C=C(C)/C=C(OC)/C=C(\C)C(=O)O2)C(OC)C(O)[C@]1(C)O[C@H]1C[C@@H](O)[C@H](O[C@H]2C[C@](C)(O)[C@H](O)C(C)O2)C(C)O1 (stereo not given in full) | 7.32
Cn1cc(-c2nnc(N)nc2-c2cn(C)c3ccc(F)cc23)c2cc(F)ccc21 | 91
O=C1c2c(c3c4cc(Br)ccc4[nH]c3c3ccc4ccccc4c23)C(=O)N1CCN1CCCCC1 | 68.3
Clc1ccc(-c2nc3ccc(/C(=N\N=C\c4ccccc4)c4ccccc4)cc3[nH]2)cc1 | 86.7
CCOC(=O)C1=C(C)Nc2nc3ccccc3n2C1c1ccccc1 (stereo not given) | 99.3
COc1ccc(-c2nnc(SCc3ccc(O)c4ncccc34)n2-c2ccccc2)cc1 | -11
Cc1nc(-c2cc3ccccc3c(N3CCN(C)CC3)n2)cs1 | 95.4
COc1ccc(N2CCN(C(=O)CSc3ccc(-c4nc5cc(C)c(C)cc5[nH]4)cn3)CC2)cc1 | 3.13
CC(c1ccccc1)N1C(=O)/C(=C/c2csc(C#N)n2)SC1=S (stereo not given) | 96.9
COc1ccc([C@H]2[C@H](O)C(=O)N2c2cc(OC)c(OC)c(OC)c2)cc1Cl | -12.5
